- assay_overview: S. cerevisiae growth inhibition in permissive medium (OD615), pilot counter-assay for S. cerevisiae lifespan shortening project, permissive growth control (AID 705)
- test_context: OD615, 24 h, at 10 µM, active compounds read high
recorded_metric: growth inhibition (%)
Return type: number; implicit unit %.

These recorded examples may help you get a feel for the data.
O=C(c1cccc(F)c1)N1CCc2ccccc21	-19.5
Cc1n[nH]c(C)c1S(=O)(=O)N(CC(=O)N1CCc2ccccc21)c1ccc(C(C)C)cc1	-9.99
OCc1cn(-c2ccccc2)nc1-c1ccc(-c2nn(-c3ccccc3)cc2CO)cc1	3.83
COc1ccc(C2C(C(C)=O)=C(O)C(=O)N2CCN(C)C)cc1OC (configuration not stated)	-17.7
CC(C)CCNC(=O)Cn1c(=O)oc2cc(S(=O)(=O)N3CCc4ccccc43)ccc21	-6.32

Incoming: What value of growth inhibition has been recorded for this entry: Cc1ccc(-n2nnc3c(=O)n(CC(=O)OCc4ccccc4)cnc32)cc1
Outgoing: -3.74

Incoming: What value of growth inhibition has been recorded for this entry: COC(=O)C1=CNC=C(C(=O)OC)C1c1ccc(C(=O)OC)cc1
Outgoing: 1.55

Incoming: What value of growth inhibition has been recorded for this entry: CCC1CCCCN1C(=O)CSc1nnc(-c2ccc(OC)cc2)o1 (configuration not stated)
Outgoing: 7.74

Incoming: What value of growth inhibition has been recorded for this entry: O=C1NC(=O)C(CC(=O)N(Cc2ccco2)C2(C(=O)NC3CCCC3)CCCCC2)N1 (configuration not stated)
Outgoing: -7.63

Incoming: What value of growth inhibition has been recorded for this entry: CC1(C)CC(=O)C2(CC3=C(CC(C)(C)CC3=O)O2)C(=O)C1
Outgoing: -4.3

Incoming: What value of growth inhibition has been recorded for this entry: O=C(c1ccco1)N1CCN(C2=NS(=O)(=O)c3ccccc32)CC1
Outgoing: -13.5

* * *

Measured viability, listed per entry.
- assay_overview: reduced viability of SK-BR-3 breast cancer cells – cell-based, 24 h, human, pilot screen (AID 572);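 note: compound exposure lasted between 18 and 24 h rather than exactly 24 h; 100% = carrier-treated control wells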
- test_context: SK-BR-3 viability, CellTiter-Glo luminescence, at 10 µM, active compounds read low
Return type: number; implicit unit %.

Cc1cc(NC(=O)CSc2nc3c(c(=O)n2Cc2ccccc2)SC(C)C3)no1 (configuration not stated)	104
COc1ccc(S(=O)(=O)N2CCN(c3ccc(C)cc3C)CC2)cc1OC	94.5
O=C(Nc1cccc(F)c1)C1C2C=CC3(CN(CCCN4CCOCC4)C(=O)C13)O2 (configuration not stated)	96
Cc1cc(C)c(NC(=O)CSc2nc3c(c(=O)n2C)SC(C)C3)c(C)c1 (configuration not stated)	93.5
O=C1c2ccccc2C(Nc2ccc(F)cc2F)N1CCN1CCOCC1 (configuration not stated)	83

Incoming: What value of viability has been recorded for this entry: O=C(NC1(C(=O)NC2CCCCC2)CCCCC1)c1ccc2c(c1)OCO2
Outgoing: 96.5

* * *

- assay_overview: growth suppression of yeast trafficking mutant, preliminary HTS, modulators of trafficking downstream of Golgi apparatus project, 1536-format plate, OD 615 nm (AID 637)
- test_context: yeast transport mutant growth, absorbance 615 nm, 18 h; active compounds read high
recorded_metric: inhibition (%)
Return type: number; implicit unit %.

These recorded examples may help you get a feel for the data.
O=C(NCc1ccco1)C1CCN(c2ccc(N3CCOCC3)nn2)CC1	-0.83
CCCOC(=O)C1C2C=CC3(CN(c4cccc(Cl)c4)C(=O)C13)O2 (stereo not drawn)	-0.16
COc1ccccc1C(=O)OCn1nnc2ccccc2c1=O	1.17
O=C(CCn1[nH]c(=O)c2ccccc2c1=O)NCCO	-7.27
Cc1ccc(-c2cc(C(F)(F)F)n3nc(C(=O)N4CCCC4)cc3n2)cc1	3.65
O=C1c2ccccc2C(Nc2cccnc2)N1Cc1ccccc1Cl (stereo not drawn)	-3.5
Cc1[nH]nc2c1C(=O)CC(C)(C)C2	-10.3
Cc1c(NC(=O)c2ccc(CN3CCc4ccccc4C3)cc2)c(=O)n(-c2ccccc2)n1C	-4.83

Incoming: What value of inhibition has been recorded for this entry: COc1ccc(NC(=O)CSc2nc3c(c(=O)n2-c2ccc(F)cc2)SCC3)cc1
Outgoing: -1.15

Incoming: What value of inhibition has been recorded for this entry: O=S(=O)(NCC(O)COCc1ccco1)c1cccs1 (stereo not drawn)
Outgoing: -5.56

Incoming: What value of inhibition has been recorded for this entry: O=C(CCCn1c(=O)c2sccc2n(Cc2cc(=O)n3ccccc3n2)c1=O)NCc1ccco1
Outgoing: -4.33

Incoming: What value of inhibition has been recorded for this entry: C=CCSc1nnc(Cc2c(C)[nH]c3ccccc23)o1
Outgoing: -2.5
